Assay: qHTS assay to identify small molecule agonists of the androgen receptor (AR) signaling pathway in the presence of an antagonist - cell viability counter screen (AID 1259379); note: nearly all actives have a fitted effect of over 25% in size; note: potency is the fitted concentration of half-maximal effect
Conditions: MDA-kb2 viability, CellTiter-Fluor, 16 h; series mostly up to 92.4 µM
Inconclusive results are not listed. Activity calls are given as the source filed them. Calls come from the whole dose curve; as a rule, active = well fitted cell-killing curve with a large enough effect in the repeat runs; inconclusive = weak or mixed curves, or effect the other way; inactive = flat fitted curve, though single readings scatter.

compound	Potency
O=C1c2ccccc2C(=O)C1C(=O)C(c1ccccc1)c1ccccc1	inactive
ClP(Cl)(Cl)(Cl)Cl	inactive
CCN(C)N=O	inactive
CCOP(=O)(OCC)SCCSCC	inactive
CCCCN=C=O	inactive
C=CCC1([C@H](C)CCC)C(=O)NC(=O)NC1=O	inactive
O=C(CBr)Nc1ccc(Cl)cc1C(=O)c1ccccc1F	inactive
C=CC(=O)OC	inactive
COC(N)=O	inactive
CCOC(=O)CBr	inactive
CCCCCCCCOC(=O)c1ccc(C(=O)OCCCCCCCC)c(C(=O)OCCCCCCCC)c1	inactive
CN1C(=O)C(O)N=C(c2ccccc2)c2cc(Cl)ccc21 (stereo not given)	inactive
CC(Cl)Cl	inactive
O=C1C(=O)c2cccc3cccc1c23	inactive
COP(=S)(OC)Oc1ccc([N+](=O)[O-])cc1Cl	48.6 µM (active)
